measured-target: T1, Bcl-2, P10415
T1 chain: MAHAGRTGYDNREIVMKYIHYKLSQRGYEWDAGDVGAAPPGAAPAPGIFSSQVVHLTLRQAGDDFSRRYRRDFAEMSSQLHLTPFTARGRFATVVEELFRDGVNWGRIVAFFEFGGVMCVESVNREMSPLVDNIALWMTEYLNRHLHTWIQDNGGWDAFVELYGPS
assay-overview: fluorescence polarisation, direct titration of receptor into 10 nM labelled peptide
Overview of reported pKd across a group of binders:
On this scale, pKd is minus log10 of a concentration expressed in M (mol/L).

binder: ADAIRPRCVELRHLCDDFINGNKKKW [MCF2L2]
recorded-number: 7.22

Problem: Quick one: give measured pKd for SWFIQSLCAMLKQYADKLEFMHILTR [CASP3]
Result: 6.58

Problem: Quick one: give measured pKd for ACGDSVLARMLRELGDSLRRPQLRLW [SLC19A1]
Result: 6.63

Problem: Quick one: give measured pKd for KSRLVQQSKALKELADELQERCQRPA [TRIM58]
Result: 6.01
